Listed compounds paired with reported cytotoxicity at 70.5 h
experiment: Human HepG2 cell viability assay in 384 well format; assay type: toxicity, cell-based; parameters: dose 125 nL, time 70.5 hour; concentration not given beside the values; details: HepG2 cells, read-out: Inhibition
Only the number, expressed in %, is required.

>>> quantitative_result("CCc1nc(CN2CCCN(C(=O)C(CC)OC)CC2)cs1 (stereo unspecified)")
6.03
>>> quantitative_result("Cc1cccc(NC(=O)c2csc(NCC(C)C)n2)n1")
-14.8
>>> quantitative_result("CC(=O)N1[C@H](CN(C)C)C[C@@H]2CN(C(=O)c3ccno3)CC[C@@H]21")
-9.81
>>> quantitative_result("Cc1nn(C)cc1Cn1c(=O)c(C)nc2ccccc21")
-6.18
>>> quantitative_result("FC(F)(F)COCCN1CCN(c2ccc3nncn3n2)CC1")
1.24
>>> quantitative_result("O=C(C1CCOCC1)N1C[C@H]2CC[C@@H]1CN(Cc1ccncc1)C2")
-6.05
>>> quantitative_result("Cn1ccnc1CN1CC[C@H](O)[C@@H](n2ccc(=O)[nH]c2=O)CC1")
-3.14
>>> quantitative_result("Cc1cccc(CN2CCc3c(CNC(=O)CC#N)nn(C)c3C2)n1")
-0.367
>>> quantitative_result("COc1c[nH]c(C(=O)N2CCN(c3cccc(Cl)c3)CC2)cc1=O")
-8.19
>>> quantitative_result("Cc1cc(C(=O)N2CCOC(c3nc(C)n[nH]3)C2)[nH]n1 (stereo unspecified)")
3.96

Input: Return value of cytotoxicity at 70.5 h for input COCCC(=O)N1C[C@@H]2COC[C@]2(COCc2cccnc2)C1 , no commentary.
Output: -13.6

====

test: Human HepG2 cell viability assay in 384 well format; type: toxicity, cell-based; set-up: dose 125 nL, time 70.5 hour; concentration not given beside the values; conditions: HepG2 cells, read-out: Inhibition
result type: cytotoxicity at 70.5 h (%)
Only the number, expressed in %, is required.

>>> quantitative_result("CCN1CCN(C(=O)C2CCCc3[nH]ncc32)CC1 (configuration not stated)")
1.54
>>> quantitative_result("OC1(CNCc2ccc(F)c(C(F)(F)F)c2)CCSCC1")
-7.48

Input: Return value of cytotoxicity at 70.5 h for input Cc1sc2ccccc2c1S(=O)(=O)NCCNC(=O)C(C)C , no commentary.
Output: -7.05

Input: Return value of cytotoxicity at 70.5 h for input CSc1ccc(C(O)CNS(=O)(=O)C2CC2)cc1 (configuration not stated) , no commentary.
Output: 2.97

Input: Return value of cytotoxicity at 70.5 h for input O=C(Cn1cc(I)cn1)NCC1CCC1 , no commentary.
Output: -20.2

Input: Return value of cytotoxicity at 70.5 h for input CCOC1CCCN(C(=O)NCCc2ccn(-c3ccccc3)n2)C1 (configuration not stated) , no commentary.
Output: 9.56

Input: Return value of cytotoxicity at 70.5 h for input Cn1ccnc1CNC(=O)N1CCCC(Cc2nccn2C)C1 (configuration not stated) , no commentary.
Output: 2.69

Input: Return value of cytotoxicity at 70.5 h for input CC(C)(C)N1CC(C(=O)N2CCN(CCc3ccccc3)CC2)CC1=O (configuration not stated) , no commentary.
Output: -12.8

Input: Return value of cytotoxicity at 70.5 h for input Cc1ccc(CN2C[C@H]3CN(Cc4ccccc4Cl)CCN3C2=O)cc1 , no commentary.
Output: -9.42

Input: Return value of cytotoxicity at 70.5 h for input Cc1cc(NC(=O)C(C)N2CCN(c3nccs3)CC2)on1 (configuration not stated) , no commentary.
Output: -3.21

Input: Return value of cytotoxicity at 70.5 h for input CNc1ncc(CN(C)C(=O)[C@@]23CNC[C@@H]2CN(C2CCCC2)C3)cn1 , no commentary.
Output: -4.91

Input: Return value of cytotoxicity at 70.5 h for input CS(=O)(=O)NCc1cn2c(n1)CN(C(=O)c1ccc[nH]1)CC2 , no commentary.
Output: -9.01

====

Listed compounds paired with reported cytotoxicity at 70.5 h
assay: Human HepG2 cell viability assay in 384 well format; format: toxicity, cell-based; set-up: dose 125 nL, time 70.5 hour; concentration not given beside the values; conditions: HepG2 cells, read-out: Inhibition
Only the number, expressed in %, is required.

Sample records with cytotoxicity at 70.5 h:
>>> quantitative_result("COc1ccc(CNc2cc(-c3nc(C)no3)ccn2)c(OC)c1")
-1.3
>>> quantitative_result("NC(=O)C1CCN(C(=O)NC2CCc3cc(Cl)ccc32)CC1 (centres undefined)")
-7.29
>>> quantitative_result("NC(=O)C1CCCN(c2ccc(CNC(=O)c3csnn3)cc2)C1 (centres undefined)")
-6.98
>>> quantitative_result("CC(C)N1C[C@@H](CO)[C@H](c2ccccc2)S1(=O)=O")
-3.46
>>> quantitative_result("O=C(Cn1ccc2c(Cl)cccc21)Nc1nc[nH]n1")
-11.2

Input: Return value of cytotoxicity at 70.5 h for input CN(C)C(=O)N1CCC2(CC1)CN(CC1CC1)CC21CCNC1=O (centres undefined) , no commentary.
Output: 0.0936

Input: Return value of cytotoxicity at 70.5 h for input Cc1nccn1C1CCCN(C(=O)c2cccc3c2OCO3)C1 (centres undefined) , no commentary.
Output: -9.12

Input: Return value of cytotoxicity at 70.5 h for input O=c1[nH]c2c(-c3ccccn3)nsc2c(=O)n1CC1CC1 , no commentary.
Output: -14.6

Input: Return value of cytotoxicity at 70.5 h for input CC(=O)N1CCN(c2cc(CCN)nc(C3CC3)n2)CC1 , no commentary.
Output: -1.97

====

assay: Human HepG2 cell viability assay in 384 well format; format: toxicity, cell-based; parameters: dose 125 nL, time 70.5 hour; concentration not given beside the values; details: HepG2 cells, read-out: Inhibition
Listed compounds paired with reported cytotoxicity at 70.5 h
Only the number, expressed in %, is required.

Sample records with cytotoxicity at 70.5 h:
>>> quantitative_result("c1ccc(OCCNC2CCN(c3ncccn3)CC2)cc1")
2.01
>>> quantitative_result("CC(C)N(C)CC(=O)N(C)Cc1nc(C(F)(F)F)cs1")
2.33
>>> quantitative_result("COCCC1CCCCN1C(=O)c1coc(COc2ccccc2F)n1 (stereo not drawn)")
-1.11
>>> quantitative_result("CN(Cc1nnc2n1CCC2)C(=O)NCCc1ccc2c(c1)OCO2")
-11.6
>>> quantitative_result("Cc1nc([C@H]2C[C@H]3CN(C(=O)c4cc(C)c(C)s4)CC[C@@H]3O2)no1")
-12.1
>>> quantitative_result("CC(C)(C)C(=O)N[C@H]1CC[C@H](Nc2nccc(-c3ccncc3)n2)C1")
-6.97
>>> quantitative_result("COCc1ccccc1NC(=O)CCNC(=O)c1ccoc1")
-13.1
>>> quantitative_result("Cc1cc(NC(=O)CN2CCn3c(nnc3C3CC3)C2)on1")
-2.62

Input: Return value of cytotoxicity at 70.5 h for input CC(C)[C@@H]1CN(CC(=O)NCc2ccco2)C[C@H]1NS(=O)(=O)N(C)C , no commentary.
Output: -3.9

====

experiment: Human HepG2 cell viability assay in 384 well format; format: toxicity, cell-based; design: dose 125 nL, time 70.5 hour; concentration not given beside the values; details: HepG2 cells, read-out: Inhibition
result type: cytotoxicity at 70.5 h
Show the value, then the unit it is measured in.

Input: Return value of cytotoxicity at 70.5 h for input O=c1[nH]c(NC2CCCC2)nc2nccc(-c3ccco3)c12 , no commentary.
Output: -8.71%

Input: Return value of cytotoxicity at 70.5 h for input CCCc1nc(CNc2nc(C)nc3oc(C)nc23)cs1 , no commentary.
Output: -6.15%

Input: Return value of cytotoxicity at 70.5 h for input CN(C)C(=O)N1CCc2c(COCC3CC3)cncc2C1 , no commentary.
Output: -4.34%

====

Listed compounds paired with reported cytotoxicity at 70.5 h
assay: Human HepG2 cell viability assay in 384 well format; format: toxicity, cell-based; parameters: dose 125 nL, time 70.5 hour; concentration not given beside the values; conditions: HepG2 cells, read-out: Inhibition
Only the number, expressed in %, is required.

>>> quantitative_result("O=C(Nc1ccccc1)N1CCC(N2Cc3ncccc3C2=O)CC1")
-8.29
>>> quantitative_result("CCc1nc(CN2CCCN(C(=O)C3CCOC3)CC2)cs1 (configuration not stated)")
7.45
>>> quantitative_result("O=C(c1ccncc1F)N1CCc2ncnc(N3CCOCC3)c2CC1")
-9.98
>>> quantitative_result("Cc1noc(C(C)N2CCN(Cc3nc(C)c(C)o3)CC2)n1 (configuration not stated)")
-3.69
>>> quantitative_result("COC1COC2(CCN(Cc3ccccc3C)CC2)C1 (configuration not stated)")
-13.2

Input: Return value of cytotoxicity at 70.5 h for input COC[C@H]1CNC(=O)[C@@H]2CCN(Cc3ccc(F)cc3)CC[C@H]12 , no commentary.
Output: -1.94

Input: Return value of cytotoxicity at 70.5 h for input CC(O)CN1CCN(Cc2csc(-c3ncccn3)n2)CC1 (configuration not stated) , no commentary.
Output: 5.33

Input: Return value of cytotoxicity at 70.5 h for input CCN(Cc1nc(COC)no1)Cc1cc2ccc(F)cc2[nH]c1=O , no commentary.
Output: -12.1

Input: Return value of cytotoxicity at 70.5 h for input O=c1c2cccc(F)c2ncn1CCN1CCNCC1 , no commentary.
Output: -2.04

Input: Return value of cytotoxicity at 70.5 h for input COCCCNC(=O)Cc1nc(-c2ccncc2)n[nH]1 , no commentary.
Output: -1.85

Input: Return value of cytotoxicity at 70.5 h for input Cc1cncc(NC(=O)c2ccc(CN3CC[C@H](O)C3)cc2)c1 , no commentary.
Output: 19.1

Input: Return value of cytotoxicity at 70.5 h for input N#CC(Sc1nnnn1C1CCOCC1)C1CCCCC1 (configuration not stated) , no commentary.
Output: -3.62
